Taken from patent US20210130452A1.

Molecular target: T1, human IL-17F (human, UniProt Q96PD4 31-163)
T1 construct: made in Hek293 cells (GenBank AF384857); also called hIL-17F; hIL17F
T1 sequence: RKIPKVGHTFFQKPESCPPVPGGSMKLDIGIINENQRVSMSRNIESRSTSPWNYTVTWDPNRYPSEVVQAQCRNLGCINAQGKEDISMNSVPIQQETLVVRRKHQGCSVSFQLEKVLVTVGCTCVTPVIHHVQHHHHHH
Experiment: SPR (Biacore) off-rate
Reported koff values for a set of binders
property_name: koff (s⁻¹)

- IL17MS3042 (VHH) VHH: EVQLVESGGGLVQAGGSLRLSCAASGRTFSSYVVGWFRQAPGKEREFIGAISGSGDTIYYAVSEKDRFTISRDNGKNTLYLQMSSLKAEDTAVYYCTADQEFGYLRFGRSEYWGQGTQVTVSS: 0.00121
- IL17MS3055 (VHH) VHH: EVQLVESGGGLVQPGGSLRLSCAASGRTFSSYVVGWFRQAPGKEREFIGAISGSGDSIYYAVSEKGRFTISRDNGKNTLYLQMNSLRAEDTAVYYCTADQEFGYLRFGRSEYWGQGTLVTVSS: 0.000493
- IL17MS16A04 (VHH, Class 3 Nanobody, wild type; also called WT) VHH: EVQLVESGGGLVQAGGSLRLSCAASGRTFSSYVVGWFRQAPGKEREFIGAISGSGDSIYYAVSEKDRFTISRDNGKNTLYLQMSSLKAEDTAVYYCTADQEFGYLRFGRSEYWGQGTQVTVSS: 0.000405
- IL17MS3041 (VHH) VHH: EVQLVESGGGLVQAGGSLRLSCAASGRTFSSYVVGWFRQAPGKEREFIGAISGSGESIYYAVSEKDRFTISRDNGKNTLYLQMSSLKAEDTAVYYCTADQEFGYLRFGRSEYWGQGTQVTVSS: 0.000606
- IL17MS3056 (VHH, variant of IL17MS16A04; Kabat numbering) VHH: EVQLVESGGGLVQPGGSLRLSCAASGRTFSSYVVGWFRQAPGKEREFVGAISGSGDSIYYAVSEKDRFTISRDNSKNTLYLQMSSLRAEDTAVYYCTADQEFGYLRFGRSEYWGQGTLVTVSS: 0.000514
- IL17MS3054 (VHH, variant of IL17MS16A04; Kabat numbering) VHH: EVQLVESGGGLVQPGGSLRLSCAASGRTFSSYVVGWFRQAPGKEREFIGAISGSGDSIYYAVSEKDRFTISRDNSKNTLYLQMSSLRPEDTAVYYCTADQEFGYLRFGRSEYWGQGTLVTVSS: 0.000459
- IL17MS3040 (VHH) VHH: EVQLVESGGGLVQAGGSLRLSCAASGRTFSSYVVGWFRQAPGKEREFIGAISGSGGSIYYAVSEKDRFTISRDNGKNTLYLQMSSLKAEDTAVYYCTADQEFGYLRFGRSEYWGQGTQVTVSS: 0.00148
